Let's look at some compounds and their measured IC50.
# subject.of.test: human factor Xa (Homo sapiens, UniProt P00742)
# Construct: released from the colourless chromogenic substrate by human factor Xa; purchased Roche
# Sequence (P00742 235-488 limits assumed): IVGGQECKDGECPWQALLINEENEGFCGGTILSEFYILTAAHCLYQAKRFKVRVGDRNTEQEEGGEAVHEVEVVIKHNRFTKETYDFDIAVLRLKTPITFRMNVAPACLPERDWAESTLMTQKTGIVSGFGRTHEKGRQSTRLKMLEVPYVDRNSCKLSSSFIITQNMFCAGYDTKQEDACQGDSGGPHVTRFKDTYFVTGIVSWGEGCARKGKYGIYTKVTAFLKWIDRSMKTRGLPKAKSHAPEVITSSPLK
# Sequence (P00742 41-179 partner limits assumed): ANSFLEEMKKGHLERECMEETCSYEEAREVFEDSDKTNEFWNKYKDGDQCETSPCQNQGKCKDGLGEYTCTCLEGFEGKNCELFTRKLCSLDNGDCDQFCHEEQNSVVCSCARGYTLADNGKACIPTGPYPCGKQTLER
# protocol.notes: Inhibition of factor Xa, enzyme-kinetic measurement with chromogenic substrate
# Assay type: biochemical
# study.conditions: substrate Chromozym X 200 μMol/l, pNA release at 405 nm, pH 8.0, 37° C.
reported.metric: IC50 (µM)

>>> recorded_measurement("Cc1cc(NCCc2cc(C(=N)N)ccc2O)ccc1C(=O)N1CCCC1 [(1)]")
0.084
>>> recorded_measurement("N=C(N)c1ccc(O)c(CNC(=O)c2ccc(C(=O)N3CCCC3)c(Cl)c2)c1 [(4)]")
0.01
>>> recorded_measurement("Cc1cc(C(=O)NCc2cc(C(=N)N)ccc2O)ccc1C(=O)N1CCCC1 [(2)]")
0.014
>>> recorded_measurement("Cc1cc(C(=O)NC(CC(=O)O)c2cccc(C(=N)N)c2)ccc1C(=O)N1CCCC1 (centres unmarked) [(5)]")
0.031
>>> recorded_measurement("CCOC(=O)CCC(=O)N(c1ccc(C(=O)NCc2cc(C(=N)N)ccc2O)cc1C)C1CCCC1 [(3)]")
0.075
